System: AD38 cells
Experiment: AD38 viability normalized to DMSO control
Type: cell-based
Settings: 10 μM compound, vs DMSO control; Table 9
measured parameter: AD38 Viability Normalized Result (CPAM/DMSO %) at 10 μM
# value in %; strip the unit string

Exercise: I have this compound here, CN(C)CCOc1ccc(S(=O)(=O)N2CCN(c3nc(Nc4ccc(F)cc4)cc(C(F)(F)F)n3)CC2)cc1 , and I need its recorded AD38 Viability Normalized Result (CPAM/DMSO %) at 10 μM.
Key: 0

* * *

# AD38 Viral Load (CpAM/DMSO %) at 10 μM listing for each entry below
System: HBV viral load, AD38 cells
Test: Activity of test compounds on viral production from AD38 cells (viral load by quantitative PCR of the core sequence in supernatant)
Format: cell-based, Hepatitis B virus
Conditions: 10 μM compound, 6 days at 37° C., vs DMSO control wells; Table 9
Procedure: AD38 cells were then re-suspended with 10 mL of treatment medium and counted. […] Subsequently viral load production was assayed by quantitative PCR of the core sequence. […] Viral load was quantitated against known standards by using ViiA™ 7 Software. […]
# value in %; strip the unit string

1) CCCCOc1ccc(S(=O)(=O)N2CCN(c3nc(Nc4ccc(F)cc4)cc(-c4nccs4)n3)CC2)cc1 [Compound 1359] : 60
2) COC(=O)Cc1ccc(S(=O)(=O)N2CCN(c3nc(Nc4ccc(F)cc4)cc(C(F)(F)F)n3)CC2)cc1 : 8
3) O=S(=O)(c1ccc(OC(F)(F)F)cc1)N1CCN(c2nc(Nc3ccc(F)cc3)cc(-c3nccs3)n2)CC1 [Compound 1367] : 44

Now consider a different compound.
Exercise: I have this compound here, O=S(=O)(c1ccc(OC(F)(F)F)cc1)N1CCN(c2nc(Nc3ccc(F)cc3)cc(-c3nccs3)n2)CC1 [Compound 1357] , and I need its recorded AD38 Viral Load (CpAM/DMSO %) at 10 μM.
Key: 67

* * *

Test system: HBV viral load, AD38 cells
Experiment: Activity of test compounds on viral production from AD38 cells (viral load by quantitative PCR of the core sequence in supernatant)
Format: cell-based, Hepatitis B virus
Settings: Hepatitis B virus, 144 h, 10 μM compound, 6 days at 37° C., vs DMSO control wells; Table 6; read-out: AD38 Viral Load (CpAM/DMSO %) at 10 μM
Please use met whenever activity at 10 µM is not below 8%, and not met whenever it is.

Examples from the recorded data:
1. Cc1ccc(S(=O)(=O)N2CCN(c3nc(Nc4ccc(C#N)cc4)cc(C(F)(F)F)n3)CC2)cc1 [Compound 1324] : not met
2. O=S(=O)(c1cccc(C(F)(F)F)c1)N1CCN(c2nc(Nc3ccc(F)cc3)cc(-n3cnnc3)n2)CC1 [Compound 1313] : met
3. COc1ccc(S(=O)(=O)N2CCN(c3cc(C)nc(Nc4ccc(C)cc4)n3)CC2)cc1 [Compound 1150] : not met

Next molecule, please.
Exercise: Quick check: does COc1ccc(S(=O)(=O)N2CCN(c3nc(Nc4ccc(C)cc4)cc(N4CCNCC4)n3)CC2)cc1 [Compound 1202] have activity at 10 µM greater than or equal to 8%?
Key: met

* * *

# AD38 Viability Normalized Result (CPAM/DMSO %) at 10 μM listing for each entry below
Test system: AD38 cells
Assay: AD38 viability normalized to DMSO control
Type: cell-based
Conditions: 10 μM compound, vs DMSO control; Table 6
Protocol: AD38 cells were then re-suspended with 10 mL of treatment medium and counted. Wells of a collagen coated 96-well NUNC microtiter plate were seeded at 50,000/well in 180 μL of treatment medium, and 20 μL of either 10% DMSO (Control) or a 10× solution of test compound in 10% DMSO in treatment media was added for a final compound concentration 1, 3, or 10 μM (1.0% final [DMSO]) and plates were incubated for 6 days at 37° C.
Please format your answer as a value with the unit trailing.

Worked cases, answers included:
1. COc1ccc(S(=O)(=O)N2CCN(c3cccc(Nc4ccc(C)cc4)n3)CC2)cc1 : 92%
2. CN(C)c1cc(Nc2ccc(F)cc2)nc(N2CCN(S(=O)(=O)c3cccc(C(F)(F)F)c3)CC2)n1 : 6%
3. COc1ccc(S(=O)(=O)N2CCN(c3nc(Nc4ccc(C)cc4)cc(OC)n3)CC2)cc1 : 96%
4. Cc1ccc(S(=O)(=O)N2CCN(c3nc(Oc4ccc(F)cc4)cc(C(C)C)n3)CC2)cc1 : 105%
5. Cc1ccc(Nc2cc(C)nc(N3CCN(S(=O)(=O)c4cn[nH]c4)CC3)n2)cc1 : 102%

Exercise: I have this compound here, COc1ccc(S(=O)(=O)N2CCN(c3nc(Nc4ccc(C)cc4)cc(N(C)C(C)(C)C)n3)CC2)cc1 , and I need its recorded AD38 Viability Normalized Result (CPAM/DMSO %) at 10 μM.
Key: 98%

Exercise: I have this compound here, COc1ccc(S(=O)(=O)N2CCN(c3nc(Nc4ccc(C)cc4)cc(-c4ccccn4)n3)CC2)cc1 , and I need its recorded AD38 Viability Normalized Result (CPAM/DMSO %) at 10 μM.
Key: 101%
